Reference for the values: patent US8883963B2

ASSAY TARGET: Human GLP-1 receptor (Homo sapiens)
Construct: The full-length cDNA was cloned in pcDNA3.1(+); expressed in transfected cells
Sequence (P43220 24-463): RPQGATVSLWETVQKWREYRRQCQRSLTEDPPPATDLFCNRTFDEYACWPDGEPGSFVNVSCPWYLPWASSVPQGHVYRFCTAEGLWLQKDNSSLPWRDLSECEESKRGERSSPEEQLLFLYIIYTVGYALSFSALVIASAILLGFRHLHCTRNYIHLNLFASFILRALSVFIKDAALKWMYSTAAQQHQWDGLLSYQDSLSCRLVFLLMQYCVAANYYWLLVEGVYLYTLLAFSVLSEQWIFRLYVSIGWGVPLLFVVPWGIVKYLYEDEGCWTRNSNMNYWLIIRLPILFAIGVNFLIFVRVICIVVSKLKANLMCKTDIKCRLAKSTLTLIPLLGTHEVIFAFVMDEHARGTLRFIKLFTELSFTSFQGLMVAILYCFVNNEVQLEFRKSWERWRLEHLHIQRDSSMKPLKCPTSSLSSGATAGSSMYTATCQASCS
ASSAY NOTES: In vitro Human GLP-1 R agonist activity (cyclic AMP determination) in CHO/human GLP1R cells
Assay type: cell-based
EXPERIMENTAL SETUP: 100 nM test compound
MEASURED METRIC: Human GLP-1 R activity (cAMP release), % activity with respect to control (%)
Report only the number, with the unit % understood.

[Q] Item CCc1cc(OC)ccc1-c1ccc(CC(NC(=S)[C@H](CC(=O)O)NC(=O)[C@H](CO)NC(=O)[C@@H](NC(=O)C(C)(Cc2ccccc2F)NC(=O)[C@@H](NC(=O)CNC(=O)C(CCC#N)NC(=O)C(C)(C)NC(=O)[C@@H](N)Cc2c[nH]cn2)[C@H](C)O)[C@H](C)O)C(=S)NC(CCCc2ccccc2)C(N)=O)cc1 (single isomer, unassigned) : provide Human GLP-1 R activity (cAMP release), % activity with respect to control
[A] 86

[Q] Look up and state reported Human GLP-1 R activity (cAMP release), % activity with respect to control for CCc1cc(OC)ccc1-c1ccc(CC(CNC(CCCc2ccccc2)C(N)=O)NC[C@H](CC(=O)O)NC(=O)[C@H](CO)NC(=O)[C@@H](NC(=O)C(C)(Cc2ccccc2F)NC(=O)[C@@H](NC(=O)CNC(=O)[C@H](CCC(N)=O)NC(=O)C(C)(C)NC(=O)[C@H](Cc2c[nH]cn2)NC(=O)OC)[C@@H](C)O)[C@@H](C)O)cc1 (single isomer, unassigned)
[A] 85

[Q] Using the record for CCc1cc(OC)ccc1-c1ccc(CC(C(=O)N(C)C(CCCc2ccccc2F)C(N)=O)N(C)C(=O)[C@H](CC(=O)O)NC(=O)[C@H](CO)NC(=O)[C@@H](NC(=O)C(C)(Cc2ccccc2F)NC(=O)[C@@H](NC(=O)CNC(=O)C(CCC#N)NC(=O)C(C)(C)NC(=O)[C@@H](N)Cc2c[nH]cn2)[C@H](C)O)[C@H](C)O)cc1 (single isomer, unassigned) , state its measured Human GLP-1 R activity (cAMP release), % activity with respect to control.
[A] 93

---

Answer each item with its documented half-life at 2 μM.
ASSAY NOTES: Stability in liver microsomes
Type: in vitro ADME
EXPERIMENTAL SETUP: pH 7.8; 2 μM peptidomimetic, human liver microsomes, 37° C.; read-out: half-life (t1/2) when incubated with liver microsomes
Please give a number only; it is taken to be in h.

[Q] Provide only the value of recorded half-life at 2 μM for CCc1cc(OC)ccc1-c1ccc(CC(CNC(CCCc2ccccc2F)C(N)=O)NC[C@H](CC(=O)O)NC(=O)[C@H](CO)NC(=O)[C@@H](NC(=O)C(C)(Cc2ccccc2F)NC(=O)[C@@H](NC(=O)CNC(=O)[C@H](CCC(N)=O)NC(=O)C(C)(C)NC(=O)[C@H](Cc2c[nH]cn2)NC(=O)OC)[C@H](C)O)[C@H](C)O)cc1 (single isomer, unassigned)
[A] 2

[Q] Give recorded half-life at 2 μM. CCc1cc(OC)ccc1-c1ccc(CC(C(=O)N(C)C(CCCc2ccccc2)C(N)=O)N(C)C(=O)[C@H](CC(=O)O)NC(=O)[C@H](CO)NC(=O)[C@@H](NC(=O)C(C)(Cc2ccccc2F)NC(=O)[C@@H](NC(=O)CNC(=O)C(CCC#N)NC(=O)C(C)(C)NC(=O)[C@@H](N)Cc2c[nH]cn2)[C@H](C)O)[C@H](C)O)cc1 (single isomer, unassigned)
[A] 1

---

Exercise: for every item that follows, state its recorded % degradation of peptidomimetics in 24 h when incubated with liver microsomes.
ASSAY NOTES: Stability in liver microsomes
Type: in vitro ADME
EXPERIMENTAL SETUP: 2 μM peptidomimetic, human liver microsomes, 37° C., 24 h
Procedure: Reactions were terminated by the addition of TFA/H2O (15 mL, 10% (v/v)). […] The column was equilibrated with TFA/H20, at a flow rate of 1 mL/min.
Starred links: 1 amine or outer side, 2 acyl side, 3 side chain; linkers in the order of their positions; H or OH if unused. Non-standard residues stand in square brackets, D forms with d. Residues, ends and D or L forms follow the SMILES beside them. ξ: configuration not given here. *: point of attachment. X3 = CCc1cc(OC)ccc1-c1ccc(CC(N*)C(=S)NC(CCCc2ccccc2)C(N)=O)cc1; ξNMeBip(2'-Et,4'-OMe) = CCc1cc(OC)ccc1-c1ccc(CC(NC)C(=O)O)cc1; Leu(5,5,5,5',5',5'-F6) = N[C@@H](CC(C(F)(F)F)C(F)(F)F)C(=O)O; ξBip(2'-Et-4'-OMe) = CCc1cc(OC)ccc1-c1ccc(CC(N)C(=O)O)cc1; X1 = O=C(C(CCCc1ccc(C(F)(F)F)cc1F)N[*:1])[*:2]; ξNMeNva(5-(2-F-Ph)) = CNC(CCCc1ccccc1F)C(=O)O; ξαMePhe(2-F) = CC(N)(Cc1ccccc1F)C(=O)O; X2 = O=C(C(CCCc1ccccc1Cl)N[*:1])[*:2]; NMeD = CN[C@@H](CC(=O)O)C(=O)O; aThr = C[C@H](O)[C@H](N)C(=O)O; Ac3c = NC1(C(=O)O)CC1; Aib = CC(C)(N)C(=O)O
Give the quantity in %, number only.

[Q] Identify measured % degradation of peptidomimetics in 24 h when incubated with liver microsomes corresponding to CCc1cc(OC)ccc1-c1ccc(CC(NC(=O)[C@H](CC(=O)O)NC(=O)[C@H](CO)NC(=O)[C@@H](NC(=O)[C@H](Cc2ccccc2)NC(=O)[C@@H](NC(=O)CNC(=O)[C@H](CCC(N)=O)NC(=O)C(C)(C)NC(=O)[C@@H](N)Cc2c[nH]cn2)[C@@H](C)O)[C@@H](C)O)C(=O)NC(CCCc2ccc(C(F)(F)F)cc2F)C(N)=O)cc1 (stereo partly shown) [compound 65] (H-H[Aib]QGTFTSD[ξBip(2'-Et-4'-OMe)][X1]-NH2)
[A] 80

[Q] Identify the reported % degradation of peptidomimetics in 24 h when incubated with liver microsomes for the following entry. CCc1cc(OC)ccc1-c1ccc(CC(NC(=O)[C@H](CC(=O)O)NC(=O)[C@H](CO)NC(=O)[C@@H](NC(=O)C(C)(Cc2ccccc2F)NC(=O)[C@@H](NC(=O)CNC(=O)C(CCC#N)NC(=O)C(C)(C)NC(=O)[C@@H](N)Cc2c[nH]cn2)[C@@H](C)O)[C@H](C)O)C(=O)NC(CCCc2ccccc2F)C(N)=O)cc1 (single isomer, unassigned) [compound 120]
[A] 80

[Q] Output measured % degradation of peptidomimetics in 24 h when incubated with liver microsomes for this item: CCc1cc(OC)ccc1-c1ccc(CC(C(=O)N(C)C(CCCc2ccccc2F)C(N)=O)N(C)C(=O)[C@H](CC(=O)O)N(C)C(=O)[C@H](CO)NC(=O)[C@@H](NC(=O)C(C)(Cc2ccccc2F)NC(=O)[C@@H](NC(=O)CNC(=O)[C@H](CC(C(F)(F)F)C(F)(F)F)NC(=O)C(C)(C)NC(=O)[C@@H](N)Cc2c[nH]cn2)[C@H](C)O)[C@H](C)O)cc1 (stereo partly shown) [compound 221] (H-H[Aib][Leu(5,5,5,5',5',5'-F6)]G[aThr][ξαMePhe(2-F)][aThr]S[NMeD][ξNMeBip(2'-Et,4'-OMe)][ξNMeNva(5-(2-F-Ph))]-NH2)
[A] 32

[Q] Given CCc1cc(OC)ccc1-c1ccc(CC(NC(=O)[C@H](CC(=O)O)NC(=O)[C@H](CO)NC(=O)[C@@H](NC(=O)C(C)(Cc2ccccc2F)NC(=O)[C@@H](NC(=O)CNC(=O)[C@H](CC(C(F)(F)F)C(F)(F)F)NC(=O)C(C)(C)NC(=O)[C@@H](N)Cc2c[nH]cn2)[C@H](C)O)[C@H](C)O)C(=S)NC(CCCc2ccccc2)C(N)=O)cc1 (stereo partly shown) [compound 219] (H-H[Aib][Leu(5,5,5,5',5',5'-F6)]G[aThr][ξαMePhe(2-F)][aThr]SD-X3) , respond with its % degradation of peptidomimetics in 24 h when incubated with liver microsomes.
[A] 33

[Q] Supply measured % degradation of peptidomimetics in 24 h when incubated with liver microsomes of CCc1cc(OC)ccc1-c1ccc(CC(NC(=O)[C@H](CC(=O)O)NC(=O)[C@H](CO)NC(=O)[C@@H](NC(=O)[C@H](Cc2ccccc2)NC(=O)[C@@H](NC(=O)CNC(=O)C(CCC#N)NC(=O)C(C)(C)NC(=O)[C@@H](N)Cc2c[nH]cn2)[C@@H](C)O)[C@@H](C)O)C(=O)NC(CCCc2ccccc2C(F)(F)F)C(N)=O)cc1 (single isomer, unassigned) [compound 79] in your reply.
[A] 100

[Q] Could you please provide reported % degradation of peptidomimetics in 24 h when incubated with liver microsomes for CCc1cc(OC)ccc1-c1ccc(CC(NC(=O)[C@H](CC(=O)O)NC(=O)[C@H](CO)NC(=O)[C@@H](NC(=O)C(C)(Cc2ccccc2F)NC(=O)[C@@H](NC(=O)CNC(=O)C(CCC#N)NC(=O)C(C)(C)NC(=O)[C@@H](N)Cc2c[nH]cn2)[C@H](C)O)[C@H](C)O)C(=O)NC(CCCc2ccccc2)C(N)=O)cc1 (single isomer, unassigned) [compound 114] ? Thanks!
[A] 81

[Q] Provide one value: measured % degradation of peptidomimetics in 24 h when incubated with liver microsomes of CCc1cc(OC)ccc1-c1ccc(CC(NC(=O)[C@H](CC(=O)O)NC(=O)[C@H](CO)NC(=O)[C@@H](NC(=O)C(C)(Cc2ccccc2F)NC(=O)[C@@H](NC(=O)CNC(=O)C(CCC#N)NC(=O)C(C)(C)NC(=O)[C@@H](N)Cc2c[nH]cn2)[C@H](C)O)[C@H](C)O)C(=O)N(C)C(CCCc2ccccc2F)C(N)=O)cc1 (single isomer, unassigned) [compound 132]
[A] 81

[Q] Provide one value: measured % degradation of peptidomimetics in 24 h when incubated with liver microsomes of CCc1cc(OC)ccc1-c1ccc(CC(CNC(CCCc2ccccc2F)C(N)=O)NC[C@H](CC(=O)O)NC(=O)[C@H](CO)NC(=O)[C@@H](NC(=O)C(C)(Cc2ccccc2F)NC(=O)[C@@H](NC(=O)CNC(=O)C(CCC#N)NC(=O)C(C)(C)NC(=O)[C@@H](N)Cc2c[nH]cn2)[C@H](C)O)[C@H](C)O)cc1 (single isomer, unassigned) [compound 204]
[A] 32

[Q] Look up % degradation of peptidomimetics in 24 h when incubated with liver microsomes of CCc1cc(OC)ccc1-c1ccc(CC(NC(=O)[C@H](CC(=O)O)NC(=O)[C@H](CO)NC(=O)[C@@H](NC(=O)C(C)(Cc2ccccc2F)NC(=O)[C@@H](NC(=O)CNC(=O)C(CCC#N)NC(=O)C(C)(C)NC(=O)[C@@H](N)Cc2c[nH]cn2)[C@H](C)O)[C@H](C)O)C(=O)N(C)C(CCCc2ccccc2)C(N)=O)cc1 (single isomer, unassigned) [compound 130] and report it.
[A] 79

[Q] Identify % degradation of peptidomimetics in 24 h when incubated with liver microsomes associated with the molecule CCc1cc(OC)ccc1-c1ccc(CC(NC(=O)[C@H](CC(=O)O)NC(=O)[C@H](CO)NC(=O)[C@@H](NC(=O)[C@H](Cc2ccccc2)NC(=O)[C@@H](NC(=O)CNC(=O)[C@H](CCC(N)=O)NC(=O)C2(NC(=O)[C@@H](N)Cc3c[nH]cn3)CC2)[C@@H](C)O)[C@@H](C)O)C(=O)NC(CCCc2ccccc2Cl)C(N)=O)cc1 (stereo partly shown) [compound 74] (H-H[Ac3c]QGTFTSD[ξBip(2'-Et-4'-OMe)][X2]-NH2)
[A] 100
